B1: CPEB3 Ribozyme (parent)
chain: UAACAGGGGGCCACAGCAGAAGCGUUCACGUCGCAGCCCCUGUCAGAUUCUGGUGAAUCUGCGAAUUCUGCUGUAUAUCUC

Variants of: B1
protocol_notes: self-cleavage, relative activity (ratio to wild type); higher = more cleavage; in vitro, sequencing
measured_attribute: self-cleavage
Please reply with the number alone, leaving off any unit.

Examples with their reported self-cleavage follow.
>>> print(df.to_string())
                             input_sequence  observed
0  UAACAGGGGGCCUCAGCAGAAGCGUUUACGUCGCAGCCCCUGUCAGAUUCUGGUGAAUCUGCGAAUUCUGCUGUAUAUCUC      0.24
1  UAACAGGGGGCCACAGCUGAAGCGUACACGUCGCAGCCCCUGUCAGAUUCUGGUGAAUCUGCGAAUUCUGCUGUAUAUCUC      0.31
2  UAACAAGGGGCCACAGCAGAAGCGUUCACGUCGCAGCCCCUGUCUGAUUCUGGUGAAUCUGCGAAUUCUGCUGUAUAUCUC      0.38

If you can, please state the reported self-cleavage value of UAACAGGGGGCCACAGCAGAAGCGUUCACGUCGCAGCCCCUGUCAGAUUCUGGUGAAUCUGCGAUUUCUGCUGUGUAUCUC .
0.2

Would you mind telling me what self-cleavage value was observed for UAACAGGGGGCCACAGCAGAAGCGUCCACGUCGCAGCCCCUGUCAGAUCCUGGUGAAUCUGCGAAUUCUGCUGUAUAUCUC ?
0.34

Entry UAACAGGGGGCCACAGCAGAAGGGUUCACGUCGCAGCCCCCGUCAGAUUCUGGUGAAUCUGCGAAUUCUGCUGUAUAUCUC : reported self-cleavage = ?
0.21

Given the entry UAACAGGGGGCCACAGCAGAAGCGUUCACGACGCAGCCCCUGUCAGAUUCUGGUGAAUCUGCGAAUUCUGCUGUUUAUCUC , report its measured self-cleavage.
0.61

Data request, read-out self-cleavage, for UAACAGGGGGCCACAGCAGAAGCGUUCACGUCGCAGCCCCAGUCAGAUUCUGGUGAAUCGGCGAAUUCUGCUGUAUAUCUC
0.23

Recorded self-cleavage of UAACAGGGGGCCACCGCAGAAGCGUUCACGUCGCAGCCCCUGUCAGAUUCUGGUGAAUCUGCGAGUUCUGCUGUAUAUCUC , please.
0.46

Look at this variant and give its reported self-cleavage. UAACAGGGGUCCACAGCAGAAGCGUUCACGUCGCAGCCCCUGUCAGAUUCUGGUGAAUCUGCGUAUUCUGCUGUAUAUCUC
0.35

For the variant UAACAGGGGGCCACAGCAGAAGCGUUCACGUCGCAGCCCCUGUCAGAUUCCGGUGUAUCUGCGAAUUCUGCUGUAUAUCUC , what self-cleavage is on record?
0.74
